Each recorded value in this set is attributed to ChEMBL document CHEMBL1129400.

Parameter Ki: see the listing below.
Target: 5-hydroxytryptamine receptor 1A (Rattus norvegicus)
Sequence (P19327 whole entry): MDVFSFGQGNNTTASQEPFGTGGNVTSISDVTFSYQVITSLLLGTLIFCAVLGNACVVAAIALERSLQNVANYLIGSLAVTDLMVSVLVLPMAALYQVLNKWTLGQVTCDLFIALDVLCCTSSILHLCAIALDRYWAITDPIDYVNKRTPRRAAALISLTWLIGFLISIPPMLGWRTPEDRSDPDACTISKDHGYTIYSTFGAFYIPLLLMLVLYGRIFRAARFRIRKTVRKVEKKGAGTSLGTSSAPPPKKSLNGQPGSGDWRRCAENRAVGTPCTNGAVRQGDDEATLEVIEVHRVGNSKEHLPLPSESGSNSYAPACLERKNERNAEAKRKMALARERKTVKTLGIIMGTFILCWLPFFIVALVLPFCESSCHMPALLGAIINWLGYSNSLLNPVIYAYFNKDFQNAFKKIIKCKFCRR
Property measured: Ki (nM)

{"Molecule": "COc1cc2nc(N3CCN(C(=O)c4ccco4)CC3)nc(N)c2cc1OC [PRAZOSIN]", "Recorded measurement": 2340}
{"Molecule": "O=C(CCCN1CCC2(CC1)C(=O)NCN2c1ccccc1)c1ccc(F)cc1 [SPIPERONE]", "Recorded measurement": 25.1}
{"Molecule": "COc1cc2nc(N3CCN(C(=O)c4ccco4)[C@@H]4CCCC[C@@H]43)nc(N)c2cc1OC", "Recorded measurement": 12900}

----------
Parameter Ki: see the listing below.
Biological target: D(2) dopamine receptor (Rattus norvegicus, UniProt P61169)
Sequence (P61169 whole entry): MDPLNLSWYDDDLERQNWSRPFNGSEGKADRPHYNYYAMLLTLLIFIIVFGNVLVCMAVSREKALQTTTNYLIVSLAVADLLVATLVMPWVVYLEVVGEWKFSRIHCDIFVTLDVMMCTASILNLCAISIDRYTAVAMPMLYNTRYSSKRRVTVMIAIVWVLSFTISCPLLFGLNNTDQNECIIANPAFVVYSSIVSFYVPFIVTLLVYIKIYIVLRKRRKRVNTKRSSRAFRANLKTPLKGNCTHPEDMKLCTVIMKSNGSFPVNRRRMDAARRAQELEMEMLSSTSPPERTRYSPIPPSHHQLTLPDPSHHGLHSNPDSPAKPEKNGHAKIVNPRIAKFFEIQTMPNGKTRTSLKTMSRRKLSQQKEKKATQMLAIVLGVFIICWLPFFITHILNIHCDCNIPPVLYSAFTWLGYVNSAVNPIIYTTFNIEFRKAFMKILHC
Experiment: Compound was tested for binding affinity against native Dopamine receptor D2 from rat striatum using radioligand [3H]-spiperone)

{"Compound": "COc1cc2nc(N3CCN(C(=O)c4ccco4)[C@@H]4CCCC[C@@H]43)nc(N)c2cc1OC", "Ki": "8.32 µM"}
{"Compound": "COc1cc2nc(N3CCN(C(=O)c4ccco4)CC3)nc(N)c2cc1OC [PRAZOSIN]", "Ki": "> 10 µM"}
{"Compound": "COc1cc2nc(N3CCN(C(=O)c4ccco4)[C@H]4CCCC[C@H]43)nc(N)c2cc1OC [CYCLAZOSIN]", "Ki": "> 10 µM"}
{"Compound": "COc1cc2nc(N3CCN(C(=O)c4ccco4)C4CCCCC43)nc(N)c2cc1OC (racemic)", "Ki": "> 10 µM"}

----------
Molecular target: Alpha-1A adrenergic receptor (Homo sapiens)
Sequence (P35348 whole entry): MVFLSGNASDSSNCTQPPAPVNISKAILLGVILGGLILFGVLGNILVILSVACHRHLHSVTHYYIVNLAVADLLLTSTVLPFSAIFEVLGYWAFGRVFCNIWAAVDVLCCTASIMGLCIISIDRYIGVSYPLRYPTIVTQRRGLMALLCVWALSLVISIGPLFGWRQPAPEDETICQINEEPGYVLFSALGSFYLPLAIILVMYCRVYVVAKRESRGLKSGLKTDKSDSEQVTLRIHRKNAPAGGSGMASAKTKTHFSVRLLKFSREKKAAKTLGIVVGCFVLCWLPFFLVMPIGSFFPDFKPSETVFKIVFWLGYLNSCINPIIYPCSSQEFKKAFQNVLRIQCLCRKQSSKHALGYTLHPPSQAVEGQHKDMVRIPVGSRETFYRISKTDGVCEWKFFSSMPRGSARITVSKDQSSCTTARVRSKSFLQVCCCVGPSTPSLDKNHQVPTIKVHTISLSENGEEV

{"Smiles repr": "COc1cc2nc(N3CCN(C(=O)c4ccco4)[C@@H]4CCCC[C@@H]43)nc(N)c2cc1OC", "Ki / nM": 12.3}
